test system: HepG2; experiment: Cytotoxicity against human HepG2 cells after 48 hrs by MTT assay; format: functional, cell-based; conditions: HepG2, 48 h
readout_type: log10(IC50) (log10 of the value in µM)
// do not treat as linear: log10 of IC50, unit µM

// worked examples, log10(IC50) included
{"compound": "COc1cc([C@@H]2c3cc4c(cc3[C@H](OC(=O)c3cccc(OC)c3OC)[C@H]3COC(=O)[C@H]23)OCO4)cc(OC)c1OC", "log10(IC50)": 1.69}
{"compound": "COc1cc([C@@H]2c3cc4c(cc3[C@H](OC(=O)c3ccc([N+](=O)[O-])cc3)[C@H]3COC(=O)[C@H]23)OCO4)cc(OC)c1OC", "log10(IC50)": 0.95}
{"compound": "COc1cc([C@@H]2c3cc4c(cc3[C@H](OC(=O)C#Cc3ccccc3)[C@H]3COC(=O)[C@H]23)OCO4)cc(OC)c1OC", "log10(IC50)": 0.03}
{"compound": "COc1cccc(/C(=C\\c2cc(OC)c(OC)c(OC)c2)C(=O)O[C@H]2c3cc4c(cc3[C@@H](c3cc(OC)c(OC)c(OC)c3)[C@H]3C(=O)OC[C@@H]32)OCO4)c1", "log10(IC50)": 1.44}
{"compound": "COc1ccc(/C=C(/C(=O)O[C@H]2c3cc4c(cc3[C@@H](c3cc(OC)c(OC)c(OC)c3)[C@H]3C(=O)OC[C@@H]32)OCO4)c2ccc(OC)c(OC)c2)cc1OC", "log10(IC50)": 0.71}
{"compound": "COc1ccc(/C(=C\\c2ccc(OC)c(OC)c2)C(=O)O[C@H]2c3cc4c(cc3[C@@H](c3cc(OC)c(OC)c(OC)c3)[C@H]3C(=O)OC[C@@H]32)OCO4)cc1", "log10(IC50)": 1.71}
{"compound": "COc1ccc(/C(=C\\c2ccc(OC(C)=O)c(OC)c2)C(=O)O[C@H]2c3cc4c(cc3[C@@H](c3cc(OC)c(OC)c(OC)c3)[C@H]3C(=O)OC[C@@H]32)OCO4)cc1OC", "log10(IC50)": 1.04}
{"compound": "COc1ccc(/C(=C\\c2cc(OC)c(OC)c(OC)c2)C(=O)O[C@H]2c3cc4c(cc3[C@@H](c3cc(OC)c(OC)c(OC)c3)[C@H]3C(=O)OC[C@@H]32)OCO4)cc1OC", "log10(IC50)": 1.37}
{"compound": "COc1cccc2c1C(=O)c1c(O)c3c(c(O)c1C2=O)C[C@@](O)(C(=O)CO)C[C@@H]3O[C@H]1C[C@H](N)[C@H](O)[C@H](C)O1 [DOXORUBICIN]", "log10(IC50)": 0.58}
{"compound": "COc1cc([C@@H]2c3cc4c(cc3[C@H](OC(=O)c3cc([N+](=O)[O-])ccc3N)[C@H]3COC(=O)[C@H]23)OCO4)cc(OC)c1OC", "log10(IC50)": 1.44}

Now, please, on to the next compound.
Give the reported value of log10(IC50) for this record: COc1ccc(/C(=C\c2cc(OC)c(OC)c(OC)c2)C(=O)O[C@H]2c3cc4c(cc3[C@@H](c3cc(OC)c(OC)c(OC)c3)[C@H]3C(=O)OC[C@@H]32)OCO4)cc1
1.37
